All figures here come from the supplement of paper PMC8149375.

System: A498
Assay procedure: GI50 of drug in presence of dasatinib; higher = less potent
Measurement context: treatment: drug + dasatinib (fixed dose, not stated); 5 days
Property: GI50 of drug; scope: individual molecules
Give the value, in units of µM, as a plain number.

Molecule | Units of measure | GI50 of drug
Oc1cccc(-c2nc(N3CCOCC3)c3oc4ncccc4c3n2)c1 [PI-103] + Cc1nc(Nc2ncc(C(=O)Nc3c(C)cccc3Cl)s2)cc(N2CCN(CCO)CC2)n1 [dasatinib] | µM | 0.386

Here's the next entry for you.
Request: Give GI50 of drug for O=c1cc(N2CCOCC2)oc2c(-c3cccc4c3sc3ccccc34)cccc12 + Cc1nc(Nc2ncc(C(=O)Nc3c(C)cccc3Cl)s2)cc(N2CCN(CCO)CC2)n1 [dasatinib]
Result: 8.33
